Kindly supply the reported pIC50 values for the records listed here.
target: full-length human PLD2 (Homo sapiens (Human)); assay: Evaluation of human PLD2 enzyme inhibitory activity (Amplex Red / choline oxidase fluorescence); assay type: biochemical; settings: full-length human PLD2 enzyme; read-out: PLD2 IC50
Sequence (O14939 whole entry): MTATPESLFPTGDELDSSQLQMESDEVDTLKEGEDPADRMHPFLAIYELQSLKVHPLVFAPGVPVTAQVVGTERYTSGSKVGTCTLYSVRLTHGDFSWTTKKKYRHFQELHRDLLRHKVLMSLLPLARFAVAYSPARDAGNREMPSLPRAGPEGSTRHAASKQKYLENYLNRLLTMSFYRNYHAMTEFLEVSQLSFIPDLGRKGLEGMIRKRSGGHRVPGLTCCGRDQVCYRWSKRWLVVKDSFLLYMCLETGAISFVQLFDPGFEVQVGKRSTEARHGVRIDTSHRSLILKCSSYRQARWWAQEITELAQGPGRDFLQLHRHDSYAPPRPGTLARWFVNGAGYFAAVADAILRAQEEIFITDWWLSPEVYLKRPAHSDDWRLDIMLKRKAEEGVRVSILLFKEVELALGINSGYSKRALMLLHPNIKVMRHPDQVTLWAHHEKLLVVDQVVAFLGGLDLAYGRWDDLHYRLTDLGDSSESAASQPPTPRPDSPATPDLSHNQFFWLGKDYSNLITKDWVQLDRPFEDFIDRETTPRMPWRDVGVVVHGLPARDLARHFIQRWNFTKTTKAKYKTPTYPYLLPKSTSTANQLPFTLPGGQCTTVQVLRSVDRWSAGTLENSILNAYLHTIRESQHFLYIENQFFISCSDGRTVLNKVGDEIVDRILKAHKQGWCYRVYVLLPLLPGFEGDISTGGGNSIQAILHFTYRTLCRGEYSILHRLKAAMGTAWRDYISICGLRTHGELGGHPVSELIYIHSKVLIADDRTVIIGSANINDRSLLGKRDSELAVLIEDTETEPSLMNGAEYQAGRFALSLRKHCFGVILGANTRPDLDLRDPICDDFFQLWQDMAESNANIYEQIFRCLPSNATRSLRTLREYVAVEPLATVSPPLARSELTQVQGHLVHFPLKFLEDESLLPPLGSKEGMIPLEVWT
Give bare numbers, as −log10 of the molar value.

Solved entries (count: 7):
CNC(=O)C(=O)N[C@@H](C)CN1CCC2(CC1)OC(=O)NN=C2c1ccccc1SC(F)(F)F [Example 2-021]	7.82
Cc1cc(C(=O)N[C@@H](C)CN2CC[C@@]3(C[C@H]2C)OC(=O)NN=C3c2ccc(C#N)cc2Cl)[nH]n1 [Example 232]	5.67
C[C@@H](CN1CCC2(CC1)OC(=O)NN=C2c1cc(C#N)ccc1Br)NC(=O)C1CCCO1 (mixture of isomers) [Example 2-048]	5.99
C[C@@H](CN1CCC2(CC1)OC(=O)N(C(=O)NC1CC1)N=C2c1ccc(F)cc1Br)NC(=O)NC1CC1 [Example 190]	6.11
CNC(=O)C(=O)N[C@@H](C)C[C@H]1CC[C@]2(CC1)OC(=O)NN=C2c1cnc(C)cc1C [Example 173]	8.00
CNC(=O)C(=O)N[C@@H](C)C[C@H]1CC[C@]2(CC1)OC(=O)NN=C2c1ccc(F)cc1C(F)(F)F [Example 56]	7.77
C[C@@H](CN1CCC2(CC1)OC(=O)NN=C2c1ccc(F)cc1Cl)NC(=O)c1ncn[nH]1 [Example 95]	5.21

Note: attention shifts to another entry.
Reported pIC50, compound CNC(=O)C(=O)N[C@@H](C)C[C@H]1CC[C@]2(CC1)OC(=O)NN=C2c1cccc(Br)c1 [Example 24] : ____
7.51

---

biological target: full-length human PLD1 (Homo sapiens (Human), UniProt Q13393); experiment: Evaluation of human PLD1 enzyme inhibitory activity (Amplex Red / choline oxidase fluorescence); format: biochemical; settings: full-length human PLD1 enzyme; read-out: PLD1 IC50
Sequence (Q13393 other isoform, or with tags, fused parts or gaps): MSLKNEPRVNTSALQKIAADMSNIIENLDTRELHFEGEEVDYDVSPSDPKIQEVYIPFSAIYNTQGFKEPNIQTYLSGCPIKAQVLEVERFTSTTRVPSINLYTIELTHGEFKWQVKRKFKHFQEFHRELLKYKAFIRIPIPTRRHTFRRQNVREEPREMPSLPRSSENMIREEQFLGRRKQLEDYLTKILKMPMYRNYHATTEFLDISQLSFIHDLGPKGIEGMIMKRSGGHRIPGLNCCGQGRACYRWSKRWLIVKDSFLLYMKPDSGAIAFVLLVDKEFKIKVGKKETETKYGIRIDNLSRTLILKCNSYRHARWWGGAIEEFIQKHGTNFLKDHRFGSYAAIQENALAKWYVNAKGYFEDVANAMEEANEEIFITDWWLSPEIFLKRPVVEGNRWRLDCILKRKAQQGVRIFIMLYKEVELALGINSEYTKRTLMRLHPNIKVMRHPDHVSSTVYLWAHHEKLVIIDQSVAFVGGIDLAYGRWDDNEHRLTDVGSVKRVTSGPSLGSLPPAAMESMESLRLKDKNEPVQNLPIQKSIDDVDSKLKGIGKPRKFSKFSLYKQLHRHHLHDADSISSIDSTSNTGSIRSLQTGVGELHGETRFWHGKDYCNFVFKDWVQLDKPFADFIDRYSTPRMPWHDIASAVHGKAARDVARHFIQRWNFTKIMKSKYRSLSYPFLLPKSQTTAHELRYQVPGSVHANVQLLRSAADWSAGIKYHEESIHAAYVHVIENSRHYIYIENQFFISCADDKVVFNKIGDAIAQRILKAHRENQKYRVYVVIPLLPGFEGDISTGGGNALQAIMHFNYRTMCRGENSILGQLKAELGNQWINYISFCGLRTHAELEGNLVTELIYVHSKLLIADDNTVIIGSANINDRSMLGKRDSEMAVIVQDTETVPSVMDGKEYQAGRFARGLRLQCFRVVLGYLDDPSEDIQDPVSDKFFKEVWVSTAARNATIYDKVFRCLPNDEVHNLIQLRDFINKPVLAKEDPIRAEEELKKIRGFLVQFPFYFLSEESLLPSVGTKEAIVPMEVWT
Decision: IC50 beneath 30 nM gives criterion met; IC50 meeting or exceeding 30 nM gives criterion not met.

Below, 8 molecules whose answers are already recorded.
C[C@@H](C[C@H]1CC[C@]2(CC1)OC(=O)NN=C2c1ccc(F)cc1Br)NC(=O)c1cc(Cl)no1	criterion met
C[C@@H](C[C@]1(C#N)CC[C@@]2(CC1)OC(=O)NN=C2c1cc(C#N)ccc1Br)NC(=O)c1cc(Cl)no1	criterion met
C[C@@H](C[C@H]1CC[C@]2(CC1)OC(=O)NN=C2c1ccc(OC(F)F)cc1Br)NC(=O)c1ccn[nH]1	criterion met
CNC(=O)C(=O)N[C@@H](C)C[C@H]1CC[C@]2(CC1)OC(=O)NN=C2c1ccc(S(C)(=O)=O)cc1Br	criterion met
C[C@@H](C[C@H]1CC[C@]2(CC1)OC(=O)NN=C2c1cccc(C#N)c1Br)NC(=O)c1cnn(C)c1	criterion not met
Cc1cc(C(=O)N[C@@H](C)C[C@H]2CC[C@]3(CC2)OC(=O)NN=C3c2cnc(N3C[C@@H]4C[C@H]3CO4)cc2C)[nH]n1	criterion met
CNC(=O)C(=O)N[C@@H](C)C[C@H]1CC[C@]2(CC1)OC(=O)NN=C2c1ccc(Br)cc1	criterion not met
C[C@@H](C[C@H]1CC[C@]2(CC1)OC(=O)NN=C2c1cc(Cl)ccc1Cl)NC(=O)c1cn2ccccc2n1	criterion met

Threshold test, IC50 < 30 nM: CNC(=O)C(=O)N[C@@H](C)C[C@H]1CC[C@]2(CC1)OC(=O)NN=C2c1cc(C(F)(F)F)ncc1Br
criterion met

Field: below-cutoff. Rule: recorded IC50 strictly less than 30 nM. Subject: CNC(=O)C(=O)N[C@@H](C)C[C@H]1CC[C@]2(CC1)OC(=O)NN=C2c1cnc(N2CCC2)cc1C
criterion met

hey, is IC50 for CNC(=O)C(=O)N[C@@H](C)C[C@H]1CC[C@]2(CC1)OC(=O)NN=C2c1ccc(C(F)(F)F)cc1C lower than 30 nM or not?
criterion met

Is IC50 strictly under 30 nM for the entry C[C@@H](CN1CCC2(CC1)OC(=O)NN=C2c1ccc(F)cc1Br)NC(=O)c1cnn(C(F)(F)F)c1 ?
criterion not met

For this molecule, is IC50 lower than 30 nM? CNC(=O)C(=O)N[C@@H](C)C[C@H]1CC[C@]2(CC1)OC(=O)NN=C2c1cnc(N2CCC(F)(F)CC2)cc1Cl
criterion met
